biological target: human PD-1 on Jurkat Effector cells of the PD-1/PD-L1 blockade bioassay (Promega, Cat #J1255) (human, UniProt Q15116 25-288); test: cell-based or functional assay
Sequence (Q15116 25-288): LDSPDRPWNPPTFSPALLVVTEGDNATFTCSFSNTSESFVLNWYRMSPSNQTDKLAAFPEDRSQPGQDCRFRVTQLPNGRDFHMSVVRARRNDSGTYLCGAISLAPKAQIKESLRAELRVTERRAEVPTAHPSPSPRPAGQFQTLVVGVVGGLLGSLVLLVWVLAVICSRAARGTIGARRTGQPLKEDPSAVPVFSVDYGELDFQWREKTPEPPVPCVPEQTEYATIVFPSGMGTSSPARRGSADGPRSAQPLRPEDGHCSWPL
assay-endpoint: luminescence (RLU), PD-1/PD-L1 blockade bioassay

Reported luminescence (RLU), PD-1/PD-L1 blockade bioassay for 2A3.H7-hIgG4 (antibody, V domains shown) VH: EVQLLESGGGLVQPGGSLRLSCAASGFTFKDYCMTWVRQAPGKGLEWVSAIVYSGGSTYYADSVKGRFTISRDNSKNTLYLQMNNLRAEDTAVYYCAKYTRASYFYDAMDVWGQGTTVTVSS VL: EIVLTQSPGTLSLSPGERATLSCRASQSIGRSFLAWYQQKPGQAPRLLIYDASTRAADIPARFSGSGSGTDFTLTISSLEPEDFAVYYCQQYYDWPPLSFGGGTKVEIKR was ~3000 RLU
